Hello, the source for this data is patent US6903238B2, in case you need it.

Kindly supply the reported melting point values for the records listed here.

Qu. Please give the documented melting point of O=C1C(c2ccc(O)cc2)=C(c2ccccc2)c2ccc(O)cc21
Ans. 100 to 110 °C

Qu. Please give the documented melting point of CC1=C(c2ccc(O)cc2)C(=O)c2ccc(O)cc21
Ans. 251 °C

Qu. Please give the documented melting point of CSC1=C(c2ccc(O)cc2)C(=O)c2ccc(O)cc21
Ans. 183 to 185 °C

Qu. Please give the documented melting point of CCSC1=C(c2ccc(O)cc2)C(=O)c2ccc(O)cc21
Ans. 118 to 120 °C

Qu. Please give the documented melting point of O=C1C(c2ccc(O)cc2)=C(c2ccccc2)c2cc(O)ccc21
Ans. 222 to 225 °C

Qu. Please give the documented melting point of COc1cc(O)cc2c1C(Br)=C(c1ccc(O)cc1)C2=O
Ans. 210 °C (dec.)

Qu. Please give the documented melting point of CC1=C(c2ccc(O)cc2)C(=O)c2c(O)cc(O)cc21
Ans. 215 to 217 °C

Qu. Please give the documented melting point of O=C1C(c2ccc(O)cc2)=C(c2ccccc2)c2cc(O)cc(O)c21
Ans. 128 to 130 °C

Qu. Please give the documented melting point of CCSC1=C(c2ccc(O)cc2)C(=O)c2cc(O)cc(O)c21
Ans. 187 to 190 °C

Qu. Please give the documented melting point of NC1=C(c2ccc(O)cc2)C(=O)c2ccc(O)cc21
Ans. 260 to 265 °C

Qu. Please give the documented melting point of O=C1c2ccc(O)cc2C(=O)C1c1ccc(O)cc1 (stereo not drawn)
Ans. 227 to 228 °C

Qu. Please give the documented melting point of CCSC1=C(c2ccc(O)cc2)C(=O)c2cc(O)ccc21
Ans. 78 to 81 °C

----------
- assay.system: human ERα (Homo sapiens)
- Sequence (P03372 250-595): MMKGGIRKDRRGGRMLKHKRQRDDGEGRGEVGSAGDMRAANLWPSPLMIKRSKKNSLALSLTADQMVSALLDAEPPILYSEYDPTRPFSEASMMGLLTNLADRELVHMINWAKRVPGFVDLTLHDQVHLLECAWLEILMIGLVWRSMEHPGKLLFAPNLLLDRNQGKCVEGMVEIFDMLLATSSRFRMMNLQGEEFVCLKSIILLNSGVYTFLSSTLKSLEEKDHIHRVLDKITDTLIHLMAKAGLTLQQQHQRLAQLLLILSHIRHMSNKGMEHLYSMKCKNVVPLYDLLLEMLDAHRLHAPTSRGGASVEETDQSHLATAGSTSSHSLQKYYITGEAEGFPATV
- assay.comment: Radioligand binding competition with [3H]-17β-estradiol, ERα
- particulars: competition with [3H]-17β-estradiol, human ERα ligand binding domain; read-out: ER-α IC50
Kindly supply the reported IC50 values for the records listed here.
The reply should be a number in nM, with the unit left off.

Qu. Please give the documented IC50 of CC1=C(c2ccc(O)cc2)C(=O)c2cc(O)ccc21
Ans. 55

Qu. Please give the documented IC50 of O=C1C(c2ccc(O)cc2)=C(c2ccccc2)c2c(O)cc(O)cc21
Ans. 47

Qu. Please give the documented IC50 of CSC1=C(c2ccc(O)cc2)C(=O)c2ccc(O)cc21
Ans. 3

Qu. Please give the documented IC50 of CSC1=C(c2ccc(O)cc2)C(=O)c2cc(O)ccc21
Ans. 12

Qu. Please give the documented IC50 of O=C1C(c2ccc(O)cc2)=C(Br)c2ccc(O)cc21
Ans. 290

Qu. Please give the documented IC50 of COc1cc(O)cc2c1C(Br)=C(c1ccc(O)cc1)C2=O
Ans. 200

Qu. Please give the documented IC50 of CC1=C(c2ccc(O)cc2)C(=O)c2ccc(O)cc21
Ans. 6

Qu. Please give the documented IC50 of CCSC1=C(c2ccc(O)cc2)C(=O)c2ccc(O)cc21
Ans. 400

Qu. Please give the documented IC50 of O=C1C(c2ccc(O)cc2)=C(c2ccccc2)c2cc(O)ccc21
Ans. 15
